Target Desc: UniProtKB Q8ILY1
Assay Protocol: Fluorescence-based high-throughput DNA polymerase assay (molecular beacon), primary screen and dose-response
Assay type: biochemical
Condition: DRC-2; 5'; concentration 10
Reported Endpoint: % inhibition Apo pol 5' (%)
Give the value in % but do not write % after it.

Asked: Could you tell me which % inhibition Apo pol 5' is on file for O=C(Cn1ccc2c(=O)[nH]ccc21)Nc1cc(F)ccc1F [Molecule 42, O=C(Cn1ccc2c1cc[nH]c2=O)Nc1cc(F)ccc1F] ?
Given back: 31

Asked: For the compound O=C(Nc1cccc(C(=O)Nc2ccc(S(=O)(=O)[O-])c3cc(S(=O)(=O)[O-])cc(S(=O)(=O)[O-])c23)c1)Nc1cccc(C(=O)Nc2ccc(S(=O)(=O)[O-])c3cc(S(=O)(=O)[O-])cc(S(=O)(=O)[O-])c23)c1.[Na+].[Na+].[Na+].[Na+].[Na+].[Na+] , what % inhibition Apo pol 5' is on record?
Given back: 41

Asked: Which % inhibition Apo pol 5' is listed for CCOC(=O)C1=C2c3cc(OC)c(OC)cc3CC(C)(C)N2C(=O)C1=O ?
Given back: 16

Asked: Requested field: % inhibition Apo pol 5'. Item: CCC(C)NC(=O)c1cc(NC(C)=O)cc2nc(C)ccc12 (stereo not drawn)
Given back: 29

Asked: Query: % inhibition Apo pol 5'; subject: CN(C)C1C(c2ccccc2)=C(c2ccccc2)SC(c2ccccc2)C1[N+](=O)[O-] (stereo not drawn)
Given back: 32

Asked: Fill blank: measured % inhibition Apo pol 5' of the compound O=c1cc(CN2CCCCC2)c2cc3c(cc2o1)OCO3 is ____.
Given back: 21

---

Target Desc: P. falciparum apicoplast DNA polymerase (Pf-apPOL) (Plasmodium falciparum, UniProt Q8ILY1)
Sequence (Q8ILY1 entry or part of it): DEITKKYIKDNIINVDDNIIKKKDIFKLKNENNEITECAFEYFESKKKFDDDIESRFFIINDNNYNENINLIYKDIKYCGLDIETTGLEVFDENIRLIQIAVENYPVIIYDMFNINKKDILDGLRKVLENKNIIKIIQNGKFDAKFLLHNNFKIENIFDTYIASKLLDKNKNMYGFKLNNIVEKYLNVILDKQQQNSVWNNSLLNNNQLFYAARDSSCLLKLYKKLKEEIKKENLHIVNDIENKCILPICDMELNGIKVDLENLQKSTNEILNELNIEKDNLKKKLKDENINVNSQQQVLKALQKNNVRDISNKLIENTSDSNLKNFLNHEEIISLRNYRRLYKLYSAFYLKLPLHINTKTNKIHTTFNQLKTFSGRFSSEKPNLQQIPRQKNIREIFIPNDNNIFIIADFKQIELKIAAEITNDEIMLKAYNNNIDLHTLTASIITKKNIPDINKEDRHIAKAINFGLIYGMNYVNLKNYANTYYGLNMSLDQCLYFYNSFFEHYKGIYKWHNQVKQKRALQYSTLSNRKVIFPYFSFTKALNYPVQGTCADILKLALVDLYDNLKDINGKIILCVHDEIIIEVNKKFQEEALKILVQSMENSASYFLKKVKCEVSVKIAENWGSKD
Assay Protocol: Fluorescence-based high-throughput DNA polymerase assay (molecular beacon), primary screen and dose-response;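 on % inhibition apPOL 180': test concentration in µM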
Type: biochemical
Condition: DRC-2; 180'; concentration 10
Please note: Fulfilled applies when % inhibition apPOL 180' is 30% or greater, and Not fulfilled applies otherwise.

Observe how each entry below is paired with its result.
Molecule: CCCCCCCCCCCCCCCCCC(=O)CCN(C)C [KU0271928]
Target Desc: P. falciparum apicoplast DNA polymerase (Pf-apPOL) (Plasmodium falciparum, UniProt Q8ILY1)
Classification: Not fulfilled
--
Molecule: O=C(CSc1nnc(-c2ccncc2)[nH]1)c1ccc(O)c(O)c1 [Molecule 89]
Target Desc: P. falciparum apicoplast DNA polymerase (Pf-apPOL) (Plasmodium falciparum, UniProt Q8ILY1)
Classification: Fulfilled
--
Molecule: CCCCCc1c2c(cc(O)c1C(=O)O)OC(=O)c1c(cc(OC)cc1C(=O)CCCC)O2 [Molecule 24]
Target Desc: P. falciparum apicoplast DNA polymerase (Pf-apPOL) (Plasmodium falciparum, UniProt Q8ILY1)
Classification: Fulfilled
--
Molecule: O=C(Nc1cccc(Cl)c1)Nc1nnc(-c2ccncc2)s1 [KU0022348]
Target Desc: P. falciparum apicoplast DNA polymerase (Pf-apPOL) (Plasmodium falciparum, UniProt Q8ILY1)
Classification: Fulfilled
--
Molecule: NS(=O)(=O)c1ccc(NC(=O)c2ccc(N3C(=O)CCC3=O)cc2)cc1 [KU0025331]
Target Desc: P. falciparum apicoplast DNA polymerase (Pf-apPOL) (Plasmodium falciparum, UniProt Q8ILY1)
Classification: Not fulfilled
--
Molecule: O=C1N=C(Nc2cccc(Cl)c2Cl)S/C1=C\c1ccco1 [Molecule 3, O=C1N=C(S/C/1=C\c1ccco1)Nc1cccc(c1Cl)Cl]
Target Desc: P. falciparum apicoplast DNA polymerase (Pf-apPOL) (Plasmodium falciparum, UniProt Q8ILY1)
Classification: Fulfilled

Asked: Determine whether this molecule has % inhibition apPOL 180' no lower than 30%: COc1ccc(-c2cc3nc4c(c(=O)n3[nH]2)CCN(C(=O)CCc2ccccc2)C4)cc1 [Molecule 17]
Given back: Not fulfilled

---

Target Desc: P. falciparum apicoplast DNA polymerase (Pf-apPOL) (Plasmodium falciparum, UniProt Q8ILY1)
Assay Protocol: Fluorescence-based high-throughput DNA polymerase assay (molecular beacon), primary screen and dose-response;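 on % inhibition apPOL 180': test concentration in µM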
Assay type: biochemical
Condition: DRC-2, 180', concentration 10 (unit not given)
% inhibition apPOL 180' values for the molecules below.
The figure you give is taken to be in %; do not add the unit.

The examples below pair each entry with its known result.
Molecule: O=C1N/C(=N/c2ccccc2Cl)S/C1=C/c1ccc([N+](=O)[O-])o1
% inhibition apPOL 180' / %: 31
//
Molecule: O=c1cc(CN2CCCCC2)c2cc3c(cc2o1)OCO3
% inhibition apPOL 180' / %: 21
//
Molecule: Cc1cccc(CC(=O)N2CCc3c(nc4cc(-c5ccccc5)[nH]n4c3=O)C2)c1
% inhibition apPOL 180' / %: 44
//
Molecule: Cc1cc(C)c2c(O)nc(SCC(=O)c3ccc(O)c(O)c3)nc2n1
% inhibition apPOL 180' / %: 54

Now turn to the next molecule.
Asked: Requested read-out: % inhibition apPOL 180'. Entry: O=C(Cn1ccc2c(=O)[nH]ccc21)Nc1cccc(Cl)c1 [Molecule 23, O=C(Cn1ccc2c1cc[nH]c2=O)Nc1cccc(c1)Cl]
Given back: 57

---

Below is a list of entries, each paired with its recorded % inhibition apPOL 180' value.
Target Desc: P. falciparum apicoplast DNA polymerase (Pf-apPOL) (Plasmodium falciparum, UniProt Q8ILY1)
Assay Protocol: Fluorescence-based high-throughput DNA polymerase assay (molecular beacon), primary screen and dose-response;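 on % inhibition apPOL 180': test concentration in µM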
Assay type: biochemical
Condition: DRC-2; 180'; conc 20
// note: answer is a bare numeric in %

Mol Smiles: O=C1NN(c2ccc(Cl)c(Cl)c2)C(=O)/C1=C/c1ccc(-c2ccc3c(c2)C(=O)OC3)o1
% inhibition apPOL 180', %: 34
--
Mol Smiles: Cc1cccc(C2=N/C(=C\c3ccc([N+](=O)[O-])o3)C(=O)O2)c1
% inhibition apPOL 180', %: 36
--
Mol Smiles: O=c1nc(/C=C/c2ccc(Br)cc2)oc2ccccc12
% inhibition apPOL 180', %: 37

Asked: Data request, read-out % inhibition apPOL 180', for Cc1ccc(CNC(=O)c2cnn3c(O)cc(CSc4ccc(Cl)cc4)nc23)cc1
Given back: 66

---

Target Desc: P. falciparum apicoplast DNA polymerase (Pf-apPOL) (Plasmodium falciparum)
Assay Protocol: Fluorescence-based high-throughput DNA polymerase assay (molecular beacon), primary screen and dose-response
Type: biochemical
Condition: DRC-2, 180', concentration 80
Description: The HT assay employs a molecular beacon, a stem-loop DNA template with a Cy3 dye and the Black Hole Quencher on the 3′ and 5′ ends of the DNA, respectively. Pf-apPOL concentration is based on a calculated absorptivity of ε280 = 56750 M^−1 cm^−1. […] To identify apPOL inhibitors we utilised our previously developed high-throughput DNA polymerase assay. […] The assay accurately recapitulates the kinetic behaviour of apPOL, as measured through more conventional low-throughput gel-based assays. […]
Reported Endpoint: % inhibition apPOL 180' (%)
Numbers only here, please. The scale is %.

Past entries and their recorded results:
Compound: CN1CC(=Cc2ccco2)C(=O)C(=Cc2ccco2)C1 [Molecule 65, CN1CC(=Cc2ccco2)C(=O)C(=Cc2ccco2)C1]
% inhibition apPOL 180' (%): 54

Compound: COc1ccc(C(=O)Nc2cccc(-c3nc4ncccc4o3)c2)cc1[N+](=O)[O-] [KU0063313]
% inhibition apPOL 180' (%): 62

Compound: O=C(Nc1ncc([N+](=O)[O-])s1)c1ccc2c(c1)C(=O)N(N1C(=O)c3ccccc3C1=O)C2=O [KU0026378]
% inhibition apPOL 180' (%): 74

Asked: Request - read-out % inhibition apPOL 180' | tested on P. falciparum apicoplast DNA polymerase (Pf-apPOL) (Plasmodium falciparum) | compound Cc1nn(CC(=O)NCCSCc2ccco2)c(C)c1Br [KU0267182]
Given back: 55

Asked: Enter reported % inhibition apPOL 180' observed with P. falciparum apicoplast DNA polymerase (Pf-apPOL) (Plasmodium falciparum) for Cn1nc(C(=O)N2CCc3c(nc4cc(-c5ccccc5)[nH]n4c3=O)C2)c2ccccc21 [Molecule 18]
Given back: 37

Asked: Look up % inhibition apPOL 180' with P. falciparum apicoplast DNA polymerase (Pf-apPOL) (Plasmodium falciparum) for this compound: CC1=NNC(=O)C1Oc1ccc(Cl)cc1Cl (centres unmarked) [KU0265591]
Given back: 42

Asked: Any idea what % inhibition apPOL 180' came out for Oc1ccc(N=Nc2ccccc2)c(O)c1 [Molecule 80, Oc1ccc(c(c1)O)N=Nc1ccccc1] on P. falciparum apicoplast DNA polymerase (Pf-apPOL) (Plasmodium falciparum)?
Given back: 41

Asked: Provide the documented % inhibition apPOL 180' with P. falciparum apicoplast DNA polymerase (Pf-apPOL) (Plasmodium falciparum) as the system for O=C(O)C(=O)Nc1nc(-c2ccc3c(c2)OCCO3)cs1 [Molecule 82, OC(=O)C(=O)Nc1scc(n1)c1ccc2c(c1)OCCO2]
Given back: 34
